The measured values listed here are drawn from patent US20190284192A1.

molecular target: BRD4 (BD2) (Homo sapiens, UniProt O60885); construct: Each member comprises two tandem bromodomains (BD1 and BD2) for recognizing the acetylated lysine residues; experiment: BRD4 (BD2) bromodomain binding, HTRF; conditions: 2 h incubation at r.t.
# pIC50 annotations
Just so you know, pIC50 here is -log10 of the concentration in molar units; reply with that number alone.

Examples with their reported pIC50 follow.
| MOLECULE | pIC50 |
| --- | --- |
| CCS(=O)(=O)Cc1ccc2c(c1)-c1cn(C)c(=O)cc1CN=C2c1cc(OC)c(F)cc1Cl [Compound 4096] | 8.40 |
| CCS(=O)(=O)Nc1cc2c(cc1Cl)C(c1ccc(F)cc1)=N[C@@H](C1CC1)c1cc(=O)n(C)cc1-2 [Compound 4077] | 9.40 |
| CCS(=O)(=O)Cc1ccc2c(c1)-c1cn(C)c(=O)cc1[C@H](C)N=C2c1ccc(OC)cc1 [Compound 4053] | 9.00 |
| CCS(=O)(=O)Cc1ccc2c(c1)-c1cn(C)c(=O)cc1[C@H](C)N=C2c1ccc(F)cc1Cl [Compound 4101] | 9.15 |
| Cn1cc2c(cc1=O)CNC(c1ccc(F)cc1)c1ccc(CS(C)(=O)=O)cc1-2 (centres unmarked) [Compound 4008] | 7.55 |
| CCS(=O)(=O)Nc1cc2c(cc1F)C(c1ccc(F)cc1)=NC(C)c1cc(=O)n(C)nc1-2 (centres unmarked) [Compound 4095] | 8.70 |
| CCS(=O)(=O)Cc1ccc2c(c1)-c1cn(C)c(=O)cc1CN=C2c1ccc(F)cc1Cl [Compound 4028] | 8.70 |
| CCS(=O)(=O)Cc1ccc2c(c1)-c1cn(C)c(=O)cc1C(COC)N=C2c1ccc(F)cc1 (centres unmarked) [Compound 4082] | 9.00 |

Enquiry: Query (molecule): CCS(=O)(=O)Nc1cc2c(cc1F)C(c1ccc(Cl)cc1)=N[C@@H](C)c1cc(=O)n(C)cc1-2 [Compound 4062] ; field requested: pIC50
Return: 9.00

Enquiry: Query (molecule): CCNC(=O)C[C@@H]1N=C(c2ccc(Cl)cc2)c2ncccc2-c2cn(C)c(=O)cc21 [Compound 4030] ; field requested: pIC50
Return: 8.70

Enquiry: Query (molecule): CCS(=O)(=O)Nc1cc2c(cc1F)C(c1ccc(F)cc1)=N[C@@H](C1CC1)c1cc(=O)n(C)cc1-2 [Compound 4084] ; field requested: pIC50
Return: 9.00

----------
system: MV-4-11 cells; assay: Inhibitory effect on MV-4-11 cells (CellTiter-Glo); assay type: cell-based; conditions: Homo sapiens, MV4-11; 72 hours, CellTiter-Glo; read-out: MV-4-11
MEASURED PARAMETER: IC50 (nM)
The reply should contain only the number, in nM.

Examples with their reported IC50 follow.
| SMILES TEXT | UNIT ANNOTATION | IC50 |
| --- | --- | --- |
| C[C@@H]1N=C(c2ccc(F)cc2)c2cc(Cl)c(NS(C)(=O)=O)cc2-c2cn(C)c(=O)cc21 | nM | 1 |
| CCS(=O)(=O)Cc1ccc2c(c1)-c1cn(C)c(=O)cc1[C@H](C(F)(F)F)N=C2c1ccc(F)cc1 | nM | 43 |
| CC[C@@H]1N=C(c2ccc(F)cc2)c2ccc(CS(=O)(=O)CC)cc2-c2cn(C)c(=O)cc21 | nM | 4 |
| CCS(=O)(=O)Cc1ccc2c(c1)-c1cn(C)c(=O)cc1[C@H](C)N=C2c1ccc(F)cc1F | nM | 4 |

Enquiry: Query (compound): "CNS(=O)(=O)Cc1ccc2c(c1)-c1cn(C)c(=O)cc1[C@H](C)N=C2c1ccc(F)cc1" ; field requested: IC50
Return: 6

Enquiry: Query (compound): "CCS(=O)(=O)Cc1ccc2c(c1)-c1cn(C)c(=O)cc1[C@H](C)N=C2c1ccc(F)cc1" ; field requested: IC50
Return: 4

Enquiry: Query (compound): "CCNC(=O)C[C@@H]1N=C(c2ccc(Cl)cc2)c2cc(F)ccc2-c2cn(C)c(=O)cc21" ; field requested: IC50
Return: 15

Enquiry: Query (compound): "CC(C)NC(=O)C[C@@H]1N=C(c2ccc(Cl)cc2)c2ccccc2-c2cn(C)c(=O)cc21" ; field requested: IC50
Return: 6

----------
# IC50 annotations
target: BRD4 (BD1) (Homo sapiens, UniProt O60885); construct: Each member comprises two tandem bromodomains (BD1 and BD2) for recognizing the acetylated lysine residues; experiment: BRD4 (BD1) bromodomain binding, HTRF; details: 2 h incubation at r.t.
The reply should contain only the number, in nM.

Examples with their reported IC50 follow.
| SMILES TEXT | UNIT ANNOTATION | VALUE |
| --- | --- | --- |
| CCS(=O)(=O)Nc1cc2c(cc1F)C(c1ccc(F)cc1)=N[C@@H](C)c1cc(=O)n(C)cc1-2 | nM | 1 |
| CCS(=O)(=O)Cc1cc2c(cc1OC)C(c1ccc(F)cc1)=N[C@@H](C)c1cc(=O)n(C)cc1-2 | nM | 2 |
| CCS(=O)(=O)Cc1ccc2c(c1)-c1cn(C)c(=O)cc1CN=C2c1ccc(F)c(OC)c1 | nM | 8 |
| CCS(=O)(=O)Cc1ccc2c(c1)-c1cn(C)c(=O)cc1CN=C2c1ccc(Cl)cc1F | nM | 7 |
| COc1ccc2c(c1)C(c1ccc(F)cc1)=NCc1cc(=O)n(C)cc1-2 | nM | 11 |
| Cn1cc2c(cc1=O)CN=C(c1ccc(F)cc1Cl)c1ccc(CS(C)(=O)=O)cc1-2 | nM | 22 |

Attention now turns to another entry.
Enquiry: Query (compound): "CCNC(=O)C[C@@H]1N=C(c2ccc(Cl)cc2)c2ncccc2-c2cn(C)c(=O)cc21" ; field requested: IC50
Return: 6

----------
biological target: BRD4 (BD1) (Homo sapiens); construct: Each member comprises two tandem bromodomains (BD1 and BD2) for recognizing the acetylated lysine residues; assay: BRD4 (BD1) bromodomain binding, HTRF; conditions: 2 h incubation at r.t.
MEASURED PARAMETER: IC50
Answer with the figure and its unit, nothing else.

Examples with their reported IC50 follow.
| SMILES TEXT | ASSAY SYSTEM | IC50 |
| --- | --- | --- |
| CCS(=O)(=O)Cc1ccc2c(c1)-c1cn(C)c(=O)cc1[C@H](C)N=C2c1ccc(OC)c(F)c1 | BRD4 (BD1) (Homo sapiens) | 2 nM |
| C[C@@H]1N=C(c2ccc(F)cc2)c2ccc(CS(=O)(=O)C(F)(F)F)cc2-c2cn(C)c(=O)cc21 | BRD4 (BD1) (Homo sapiens) | 1 nM |

Attention now turns to another entry.
Enquiry: Query (molecule): "CCS(=O)(=O)Cc1ccc2c(c1)-c1cn(C)c(=O)cc1CN=C2c1ccc(Cl)cc1" ; field requested: IC50
Return: 4 nM

----------
# IC50 annotations
molecular target: BRD4 (BD1) (Homo sapiens); construct: Each member comprises two tandem bromodomains (BD1 and BD2) for recognizing the acetylated lysine residues; test: BRD4 (BD1) bromodomain binding, HTRF; details: 2 h incubation at r.t.
The reply should contain only the number, in nM.

Examples with their reported IC50 follow.
| COMPOUND | VALUE |
| --- | --- |
| CCS(=O)(=O)Nc1ccc2c(c1)-c1cn(C)c(=O)cc1CN=C2c1ccc(Cl)cc1 [Compound 4024] | 2 |
| CCS(=O)(=O)Cc1ccc2c(c1)-c1nn(C)c(=O)cc1C(C)N=C2c1ccc(F)cc1 (centres unmarked) [Compound 4081] | 6 |
| CCS(=O)(=O)Cc1ccc2c(c1)-c1cn(C)c(=O)cc1[C@H](C)N=C2c1ccc(F)c(OC)c1 [Compound 4054] | 2 |
| CCS(=O)(=O)Cc1ccc2c(c1)-c1cn(C)c(=O)cc1[C@H](C)N=C2c1ccc(F)cc1Cl [Compound 4101] | 3 |
| CCS(=O)(=O)Nc1cc2c(cc1Cl)C(c1ccc(F)cc1)=N[C@@H](C)c1cc(=O)n(C)cc1-2 [Compound 4058] | 1 |
| Cn1cc2c(c1C(N)=O)CCN(c1ccc(F)cc1)c1ccc(CS(C)(=O)=O)cc1-2 [Compound 4002] | 26 |
| CCS(=O)(=O)Cc1ccc2c(c1)-c1cn(C)c(=O)cc1CN=C2c1ccc(F)cc1Cl [Compound 4028] | 22 |

Attention now turns to another entry.
Enquiry: Query (compound): CCS(=O)(=O)Cc1ccc2c(c1)-c1nn(C)c(=O)cc1C(C)N=C2c1ccc(F)cc1Cl (centres unmarked) [Compound 4097] ; field requested: IC50
Return: 20

----------
test system: MV-4-11 cells; assay: Inhibitory effect on MV-4-11 cells (CellTiter-Glo); assay type: cell-based; conditions: Homo sapiens, MV4-11; 72 hours, CellTiter-Glo; read-out: MV-4-11
# IC50 annotations
The reply should contain only the number, in nM.

Enquiry: Query (molecule): "Cn1cc2c(cc1=O)CN=C(c1ccc(Cl)cc1)c1ccccc1-2" ; field requested: IC50
Return: 637

Enquiry: Query (molecule): "CCS(=O)(=O)Cc1ccc2c(c1)-c1cn(C)c(=O)cc1CN=C2c1ccc(F)cc1F" ; field requested: IC50
Return: 80

Enquiry: Query (molecule): "CCNS(=O)(=O)c1ccc2c(c1)-c1cn(C)c(=O)cc1[C@H](C)N=C2c1ccc(F)cc1" ; field requested: IC50
Return: 55
